test-system: PI3K alfa (Homo sapiens, UniProt P42336)
Construct: for the p110-a subunit (with a deletion of the first 20 amino acids); His tag (C); made in house; host or cells: baculovirus; Tn5 (Trichoplusia ni) or TiniPro insect cells
Sequence (P42336 with tags, fused parts or gaps limits assumed): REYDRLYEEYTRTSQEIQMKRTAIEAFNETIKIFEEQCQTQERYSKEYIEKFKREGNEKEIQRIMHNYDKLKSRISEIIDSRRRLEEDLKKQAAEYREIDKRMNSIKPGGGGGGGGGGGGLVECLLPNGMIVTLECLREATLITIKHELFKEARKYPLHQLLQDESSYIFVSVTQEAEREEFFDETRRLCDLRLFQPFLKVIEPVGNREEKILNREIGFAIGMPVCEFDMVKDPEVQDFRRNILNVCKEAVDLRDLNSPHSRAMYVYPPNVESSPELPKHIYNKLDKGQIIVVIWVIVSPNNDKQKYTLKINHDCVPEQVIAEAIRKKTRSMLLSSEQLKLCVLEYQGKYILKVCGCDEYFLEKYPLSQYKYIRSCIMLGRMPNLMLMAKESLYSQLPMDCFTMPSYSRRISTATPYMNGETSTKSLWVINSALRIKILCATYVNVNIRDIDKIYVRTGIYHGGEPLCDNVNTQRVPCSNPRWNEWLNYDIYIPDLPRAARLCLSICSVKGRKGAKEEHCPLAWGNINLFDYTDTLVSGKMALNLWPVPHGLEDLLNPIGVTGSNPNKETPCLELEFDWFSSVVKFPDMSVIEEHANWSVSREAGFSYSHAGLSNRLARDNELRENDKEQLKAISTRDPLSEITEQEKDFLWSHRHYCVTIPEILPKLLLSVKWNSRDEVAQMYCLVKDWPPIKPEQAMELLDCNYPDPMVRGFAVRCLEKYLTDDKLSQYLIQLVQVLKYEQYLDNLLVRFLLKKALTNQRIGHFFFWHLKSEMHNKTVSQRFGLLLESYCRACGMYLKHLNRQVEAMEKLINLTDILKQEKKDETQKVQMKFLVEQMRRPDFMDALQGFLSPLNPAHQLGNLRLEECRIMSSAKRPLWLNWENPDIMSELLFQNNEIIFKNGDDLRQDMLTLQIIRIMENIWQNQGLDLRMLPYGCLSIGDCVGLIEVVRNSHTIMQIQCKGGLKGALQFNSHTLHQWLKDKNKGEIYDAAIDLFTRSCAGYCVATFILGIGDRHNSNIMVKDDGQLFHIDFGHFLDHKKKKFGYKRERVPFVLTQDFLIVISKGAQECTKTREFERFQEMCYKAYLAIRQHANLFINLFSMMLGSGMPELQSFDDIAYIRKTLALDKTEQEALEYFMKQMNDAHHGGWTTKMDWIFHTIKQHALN
assay-explanation: PI3 kinase assay (Kinase-Glo luminescence), PI3K alfa
Format: biochemical
details: Enzymatic Data; read-out: PI3K alfa IC50 [umol]
pIC50: −log10 of the molar value.
Examples of compounds with documented pIC50 follow.
recorded-metric: pIC50

[[record]]
molecule = "CC(=O)NCCOc1ccc(-c2ccc3ncc(-c4cnc(N)c(C(F)(F)F)c4)n3n2)cc1"
assay_result = 7.12

[[record]]
molecule = "COc1cc(-c2cnc3ccc(-c4cnc(N)c(C(F)(F)F)c4)nn23)c(F)cc1C(=O)NCCn1ccnc1"
assay_result = 8.52

[[record]]
molecule = "NCCOc1ccc(-c2ccc3ncc(-c4cnc(N)c(C(F)(F)F)c4)n3n2)cc1"
assay_result = 6.80

[[record]]
molecule = "Nc1ncc(-c2cnc3ccc(-c4ccc(OCCn5cccn5)cc4)nn23)cc1C(F)(F)F"
assay_result = 6.24

[[record]]
molecule = "COc1ccc(-c2ccc3ncc(-c4cnc(N)c(C(F)(F)F)c4)n3n2)cc1F"
assay_result = 5.95

[[record]]
molecule = "CC(C)(C)OC(=O)N1CCC(Oc2ccc(-c3ccc4ncc(-c5cnc(N)c(C(F)(F)F)c5)n4n3)cc2)CC1"
assay_result = 6.42

[[record]]
molecule = "Nc1ncc(-c2ccc3ncc(-c4ccc(C(=O)N5CCN(CCO)CC5)c(F)c4)n3n2)cc1C(F)(F)F"
assay_result = 7.96

[[record]]
molecule = "Nc1ncc(-c2ccc3ncc(-c4ccc(C(=O)N5CCN(Cc6ccccn6)CC5)c(F)c4)n3n2)cc1C(F)(F)F"
assay_result = 8.10

[[record]]
molecule = "Nc1ncc(-c2ccc3ncc(-c4cnc5[nH]ccc5c4)n3n2)cc1C(F)(F)F"
assay_result = 6.58

[[record]]
molecule = "COc1ccc(-c2ccc3ncc(-c4cnc(N)cn4)n3n2)cc1OC"
assay_result = 7.04

[[record]]
molecule = "Nc1ncc(-c2ccc3ncc(-c4ccc(S(=O)(=O)NCCCN5CCOCC5)cc4)n3n2)cc1C(F)(F)F"
assay_result = 7.15

[[record]]
molecule = "NCCCOc1ccc(-c2ccc3ncc(-c4cnc(N)c(C(F)(F)F)c4)n3n2)cc1"
assay_result = 6.69

[[record]]
molecule = "CC(=O)c1ccc(CNC(=O)c2ccc(-c3cnc4ccc(-c5cnc(N)c(C(F)(F)F)c5)nn34)cc2)cc1"
assay_result = 7.06

[[record]]
molecule = "COc1cc(-c2cnc3ccc(-c4cnc(N)c(C(F)(F)F)c4)nn23)ccc1C(=O)N1CCN(CCN2CCOCC2)CC1"
assay_result = 8.10

[[record]]
molecule = "CN(C)CCN1CCN(C(=O)c2ccc(-c3cnc4ccc(-c5cnc(N)c(C(F)(F)F)c5)nn34)cc2)CC1"
assay_result = 7.59

[[record]]
molecule = "CS(=O)(=O)Nc1ccc(-c2cnc3ccc(-c4cnc(N)c(C(F)(F)F)c4)nn23)cc1"
assay_result = 6.81


* * *

test-system: PI3K alfa (Homo sapiens, UniProt P42336)
Construct: for the p110-a subunit (with a deletion of the first 20 amino acids); His tag (C); made in house; host or cells: baculovirus; Tn5 (Trichoplusia ni) or TiniPro insect cells
assay-explanation: PI3 kinase assay (Kinase-Glo luminescence), PI3K alfa
Type: biochemical
details: read-out: IC50 (μm) PI3K-alfa
Procedure: In a more preferred assay, the kinase reaction is performed in a final volume of 10 μL per well of a low volume non binding CORNING, 384 well black plate (Cat. No. #3676). The final concentrations of ATP and phosphatidyl inositol (PI) in the assay are 1 μM and 10 μg/mL respectively. […] […] is determined by a four parameter curve fitting routine that comes aloneg with “excel fit”. […] Alternatively, IC50 values are calculated using idbsXLfit model 204, which is a 4 parameter logistic model. […]
pIC50: −log10 of the molar value.
Use YES when the recorded pIC50 is no lower than 8; use NO when it is lower.

[[record]]
compound = "COc1cc(-c2ccc3ncc(-c4cnc(N)c(C(F)(F)F)c4)n3n2)ccc1OCCCNC(=O)OC(C)(C)C [Example 10]"
classification = "NO"

[[record]]
compound = "COc1cc(-c2cnc3ccc(-c4ccc(C(N)=O)cc4)nn23)ccc1OCCCNC(=O)OC(C)(C)C [Example 21]"
classification = "NO"

[[record]]
compound = "Nc1ncc(-c2ccc3ncc(-c4ccc(NCc5ccccc5)nc4)n3n2)cc1C(F)(F)F [Example 30]"
classification = "YES"

[[record]]
compound = "COc1ccc(-c2cnc3ccc(-c4ccc(OCCO)c(C(C)=O)c4)nn23)cc1OC [Example 16]"
classification = "NO"

[[record]]
compound = "COc1ccccc1-c1ccc2ncc(-c3ccc(C(N)=O)cc3)n2n1 [Example 9]"
classification = "NO"

[[record]]
compound = "Nc1ncc(-c2ccc3ncc(-c4ccc(N5CCOCC5)nc4)n3n2)cc1C(F)(F)F [Example 31]"
classification = "YES"

[[record]]
compound = "Nc1ncc(-c2ccc3ncc(-c4cnc(N)c(C(F)(F)F)c4)n3n2)cc1C(F)(F)F [Example 6]"
classification = "YES"

[[record]]
compound = "Nc1ncc(-c2ccc3ncc(-c4ccc(F)nc4)n3n2)cc1C(F)(F)F [Example 27]"
classification = "YES"

[[record]]
compound = "NC(=O)c1ccc(-c2ccc3ncc(-c4cnc(N)c(C(F)(F)F)c4)n3n2)cc1 [Example 11]"
classification = "NO"


* * *

Examples of compounds with documented IC50 follow.
test-system: PI3K delta (Homo sapiens)
Construct: for the full-length p110-d subunit are generated and fused by overlapping PCR; His tag (C); Tn5 (Trichoplusia ni) or TiniPro insect cells
Sequence (O00329 with tags, fused parts or gaps limits assumed): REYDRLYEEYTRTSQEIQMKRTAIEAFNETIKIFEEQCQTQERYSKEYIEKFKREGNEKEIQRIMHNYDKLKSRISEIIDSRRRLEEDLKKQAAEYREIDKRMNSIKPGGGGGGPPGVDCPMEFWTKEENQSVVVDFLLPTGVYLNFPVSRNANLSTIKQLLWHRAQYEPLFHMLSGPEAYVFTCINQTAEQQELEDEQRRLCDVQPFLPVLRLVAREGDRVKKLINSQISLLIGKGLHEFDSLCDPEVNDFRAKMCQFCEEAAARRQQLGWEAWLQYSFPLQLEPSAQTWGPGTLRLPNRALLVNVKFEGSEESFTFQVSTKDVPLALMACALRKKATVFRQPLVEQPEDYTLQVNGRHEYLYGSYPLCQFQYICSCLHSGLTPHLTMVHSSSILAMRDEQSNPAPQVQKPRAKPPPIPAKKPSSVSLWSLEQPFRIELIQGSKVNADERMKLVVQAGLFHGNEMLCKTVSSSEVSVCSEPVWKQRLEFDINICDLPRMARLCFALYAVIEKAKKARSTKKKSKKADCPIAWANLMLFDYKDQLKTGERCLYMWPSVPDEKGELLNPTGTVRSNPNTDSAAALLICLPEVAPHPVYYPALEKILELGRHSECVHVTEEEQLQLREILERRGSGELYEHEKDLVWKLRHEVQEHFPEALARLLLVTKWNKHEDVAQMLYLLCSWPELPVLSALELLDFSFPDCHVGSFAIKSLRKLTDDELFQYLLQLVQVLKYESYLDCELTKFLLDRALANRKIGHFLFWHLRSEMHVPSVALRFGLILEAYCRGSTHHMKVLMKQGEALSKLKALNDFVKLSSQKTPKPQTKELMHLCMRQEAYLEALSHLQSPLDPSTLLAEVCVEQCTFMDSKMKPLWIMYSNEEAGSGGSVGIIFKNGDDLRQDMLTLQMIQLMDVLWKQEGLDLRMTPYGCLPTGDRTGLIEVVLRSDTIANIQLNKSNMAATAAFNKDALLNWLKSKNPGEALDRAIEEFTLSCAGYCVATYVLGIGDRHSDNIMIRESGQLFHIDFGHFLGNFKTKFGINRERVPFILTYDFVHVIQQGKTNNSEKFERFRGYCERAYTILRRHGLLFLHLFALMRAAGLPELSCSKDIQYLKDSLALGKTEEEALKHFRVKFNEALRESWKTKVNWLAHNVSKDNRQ
assay-explanation: PI3 kinase assay (Kinase-Glo luminescence), PI3K delta
details: Enzymatic Data; read-out: PI3K delta IC50 [umol]
recorded-metric: IC50 (µM)

[[record]]
molecule = "COc1cc(-c2cnc3ccc(-c4cnc(N)c(C(F)(F)F)c4)nn23)ccc1C(=O)N1CCN(CCc2ccccn2)CC1"
recorded_metric = "IC50"
assay_result = 0.033

[[record]]
molecule = "Nc1ncc(-c2ccc3ncc(-c4ccc(C(=O)NCCCN5CCOCC5)cc4)n3n2)cc1C(F)(F)F"
recorded_metric = "IC50"
assay_result = 0.013

[[record]]
molecule = "CC(=O)NCCCOc1ccc(-c2ccc3ncc(-c4cnc(N)c(C(F)(F)F)c4)n3n2)cc1"
recorded_metric = "IC50"
assay_result = 0.739

[[record]]
molecule = "CC(=O)c1ccc(CNC(=O)c2ccc(-c3cnc4ccc(-c5cnc(N)c(C(F)(F)F)c5)nn34)cc2)cc1"
recorded_metric = "IC50"
assay_result = 0.308

[[record]]
molecule = "CN(C)CCN1CCN(C(=O)c2ccc(-c3cnc4ccc(-c5cnc(N)c(C(F)(F)F)c5)nn34)cc2F)CC1"
recorded_metric = "IC50"
assay_result = 0.03

[[record]]
molecule = "Nc1ncc(-c2ccc3ncc(-c4ccc(C(=O)N5CCN(CCN6CCOCC6)CC5)cc4)n3n2)cc1C(F)(F)F"
recorded_metric = "IC50"
assay_result = 0.038

[[record]]
molecule = "CS(=O)(=O)Nc1ccc(-c2cnc3ccc(-c4cnc(N)c(C(F)(F)F)c4)nn23)cc1"
recorded_metric = "IC50"
assay_result = 0.282


* * *

test-system: PI3K alfa (Homo sapiens)
Construct: for the p110-a subunit (with a deletion of the first 20 amino acids); His tag (C); made in house; host or cells: baculovirus; Tn5 (Trichoplusia ni) or TiniPro insect cells
assay-explanation: PI3 kinase assay (Kinase-Glo luminescence), PI3K alfa
Format: biochemical
details: Enzymatic Data; read-out: PI3K alfa IC50 [umol]
pIC50: −log10 of the molar value.
recorded-metric: pIC50

[[record]]
molecule = "Nc1ncc(-c2cnc3ccc(-c4ccc(OCCN5CCCC5=O)cc4)nn23)cc1C(F)(F)F"
test_system = "PI3K alfa (Homo sapiens)"
assay_result = 7.12

[[record]]
molecule = "Nc1ccc(-c2cnc3ccc(-c4cnc(N)c(C(F)(F)F)c4)nn23)cn1"
test_system = "PI3K alfa (Homo sapiens)"
assay_result = 7.27

[[record]]
molecule = "COc1cc(-c2ccc3ncc(-c4cnc(N)c(C(F)(F)F)c4)n3n2)ccc1OCCCN1CCNC1=O"
test_system = "PI3K alfa (Homo sapiens)"
assay_result = 8.22

[[record]]
molecule = "CNS(=O)(=O)c1ccc(-c2cnc3ccc(-c4cnc(N)c(C(F)(F)F)c4)nn23)cc1"
test_system = "PI3K alfa (Homo sapiens)"
assay_result = 6.91

[[record]]
molecule = "Nc1ncc(-c2ccc3ncc(-c4ccc(C(=O)NCCN5CCOCC5)cc4)n3n2)cc1C(F)(F)F"
test_system = "PI3K alfa (Homo sapiens)"
assay_result = 7.82

[[record]]
molecule = "Nc1ncc(-c2cnc3ccc(-c4ccc(OCCCNC(=O)C5CC5)nc4)nn23)cc1C(F)(F)F"
test_system = "PI3K alfa (Homo sapiens)"
assay_result = 7.96

[[record]]
molecule = "COc1cc(-c2cnc3ccc(-c4cnc(N)c(C(F)(F)F)c4)nn23)ccc1OCCCNC(=O)OC(C)(C)C"
test_system = "PI3K alfa (Homo sapiens)"
assay_result = 6.59

[[record]]
molecule = "CC(C)(C)OC(=O)NCCOc1ccc(-c2ccc3ncc(-c4cnc(N)c(C(F)(F)F)c4)n3n2)cc1"
test_system = "PI3K alfa (Homo sapiens)"
assay_result = 6.14

[[record]]
molecule = "Nc1ncc(-c2ccc3ncc(-c4ccc(C(=O)O)c(F)c4)n3n2)cc1C(F)(F)F"
test_system = "PI3K alfa (Homo sapiens)"
assay_result = 8.22

[[record]]
molecule = "CN(C)C(=O)c1ccc(CNC(=O)c2ccc(-c3cnc4ccc(-c5cnc(N)c(C(F)(F)F)c5)nn34)cc2)cc1"
test_system = "PI3K alfa (Homo sapiens)"
assay_result = 7.57

[[record]]
molecule = "Nc1ncc(-c2ccc3ncc(-c4ccc(OCCCN5CCOCC5)cc4)n3n2)cc1C(F)(F)F"
test_system = "PI3K alfa (Homo sapiens)"
assay_result = 7.31

[[record]]
molecule = "C=CS(=O)(=O)c1ccc(-c2cnc3ccc(-c4cnc(N)c(C(F)(F)F)c4)nn23)cc1"
test_system = "PI3K alfa (Homo sapiens)"
assay_result = 7.57

[[record]]
molecule = "COc1cc(-c2ccc3ncc(-c4cnc(N)c(C(F)(F)F)c4)n3n2)ccc1OCCCNC(C)=O"
test_system = "PI3K alfa (Homo sapiens)"
assay_result = 7.66

[[record]]
molecule = "COc1ccc(-c2ccc3ncc(-c4ccc(N)nc4)n3n2)cc1OC"
test_system = "PI3K alfa (Homo sapiens)"
assay_result = 6.99

[[record]]
molecule = "CCN(CC)CCNC(=O)c1ccc(-c2cnc3ccc(-c4cnc(N)c(C(F)(F)F)c4)nn23)cc1F"
test_system = "PI3K alfa (Homo sapiens)"
assay_result = 7.04

[[record]]
molecule = "COc1cccc(-c2ccc3ncc(-c4cnc5[nH]ccc5c4)n3n2)c1"
test_system = "PI3K alfa (Homo sapiens)"
assay_result = 6.89

[[record]]
molecule = "Nc1ncc(-c2cnc3ccc(-c4ccc(OCCCNC(=O)C5CC5)cc4)nn23)cc1C(F)(F)F"
test_system = "PI3K alfa (Homo sapiens)"
assay_result = 7.06

[[record]]
molecule = "Nc1ncc(-c2cnc3ccc(-c4ccc(OCC5(N)COC5)cc4)nn23)cc1C(F)(F)F"
test_system = "PI3K alfa (Homo sapiens)"
assay_result = 7.21

[[record]]
molecule = "Nc1ncc(-c2ccc3ncc(-c4ccc(C(=O)N5CCN(Cc6ccc(F)cc6)CC5)c(F)c4)n3n2)cc1C(F)(F)F"
test_system = "PI3K alfa (Homo sapiens)"
assay_result = 6.85

[[record]]
molecule = "Nc1ncc(-c2ccc3ncc(-c4ccc(C(=O)N5CCN(Cc6cccnc6)CC5)cc4)n3n2)cc1C(F)(F)F"
test_system = "PI3K alfa (Homo sapiens)"
assay_result = 7.72

[[record]]
molecule = "Nc1ncc(-c2ccc3ncc(-c4ccc(C(=O)NCCN5CCS(=O)(=O)CC5)cc4)n3n2)cc1C(F)(F)F"
test_system = "PI3K alfa (Homo sapiens)"
assay_result = 8.30

[[record]]
molecule = "COc1cc(-c2ccc3ncc(-c4cnc(N)c(C(F)(F)F)c4)n3n2)ccc1OCCCNC(=O)C1CC1"
test_system = "PI3K alfa (Homo sapiens)"
assay_result = 7.59

[[record]]
molecule = "COc1cc(-c2cnc3ccc(-c4cnc(N)c(C(F)(F)F)c4)nn23)ccc1C(=O)N1CCN(CC(=O)N2CCOCC2)CC1"
test_system = "PI3K alfa (Homo sapiens)"
assay_result = 8.05

[[record]]
molecule = "Nc1ncc(-c2ccc3ncc(-c4ccc(C(=O)N5CCN(Cc6cccnc6)CC5)c(F)c4)n3n2)cc1C(F)(F)F"
test_system = "PI3K alfa (Homo sapiens)"
assay_result = 7.92

[[record]]
molecule = "COc1cc(-c2ccc3ncc(-c4ccc(S(=O)(=O)CCN5CCOCC5)cc4)n3n2)ccc1OCCN1CCCC1=O"
test_system = "PI3K alfa (Homo sapiens)"
assay_result = 6.02

[[record]]
molecule = "c1cnn(CCOc2ccc(-c3ccc4ncc(-c5cnc6[nH]ccc6c5)n4n3)cc2)c1"
test_system = "PI3K alfa (Homo sapiens)"
assay_result = 6.80

[[record]]
molecule = "Nc1ncc(-c2cnc3ccc(-c4ccc(OCC5(CNC(=O)C6CC6)COC5)cc4)nn23)cc1C(F)(F)F"
test_system = "PI3K alfa (Homo sapiens)"
assay_result = 7.32

[[record]]
molecule = "Nc1ncc(-c2ccc3ncc(-c4cnc5c(c4)ncn5CCN4CCOCC4)n3n2)cc1C(F)(F)F"
test_system = "PI3K alfa (Homo sapiens)"
assay_result = 7.36

[[record]]
molecule = "COc1cc(-c2cnc3ccc(-c4cnc(N)c(C(F)(F)F)c4)nn23)c(F)cc1C(=O)NCCN1CCOCC1"
test_system = "PI3K alfa (Homo sapiens)"
assay_result = 7.42

[[record]]
molecule = "Nc1ncc(-c2ccc3ncc(-c4cncc(C(F)(F)F)c4)n3n2)cc1C(F)(F)F"
test_system = "PI3K alfa (Homo sapiens)"
assay_result = 6.83

